Sourced from patent US20240239790A1

- protocolSummary: Hepatocyte Stability Assay, human hepatocytes
- Format: in vitro ADME
- measurementSetup: both sexes, cryopreserved hepatocytes, pH 7.3; human hepatocytes 0.7 million cells per mL, 1 uM compound
Entries and their measured hepatocyte CLint at 1 uM follow.
measurementKind: hepatocyte CLint at 1 uM

| compound | measurement |
| --- | --- |
| CS(=O)(=O)c1cnc2cc(N3CCOCC3)nc(O[C@H]3CC[C@@H](Nc4ncnc5ccoc45)CC3)c2c1 [Compound 204b] | < 8.2 µL/min/1e6 cells |
| O=C(COc1cnc(N[C@H]2CC[C@@H](Oc3nc(N4CCOCC4)cc4ncccc34)CC2)nc1)N1CCC1 | < 8.2 µL/min/1e6 cells |
| CN(C)C(=O)COc1ccc(C(=O)N[C@H]2CC[C@@H](Oc3nc(N4CCOCC4)cc4ncccc34)CC2)cn1 | < 8.2 µL/min/1e6 cells |
| c1cnc2cc(N3CCOCC3)nc(O[C@H]3CC[C@@H](Nc4ncc(OCCN5CCOCC5)cn4)CC3)c2c1 | > 8.2 µL/min/1e6 cells |

====

- protocolSummary: Hepatocyte Stability Assay, human hepatocytes
- Type: in vitro ADME
- measurementSetup: human hepatocytes, 120 min
measurementKind: Hepatocyte Stability Human % rem. 120 min

| compound | measurement |
| --- | --- |
| CNC(=O)COc1cnc(N[C@H]2CC[C@@H](Oc3nc(N4CCOCC4)cc4ncccc34)CC2)nc1 [Compound 71] | G (% remaining = 50-75%) |
| Cn1c(=O)n(C)c2nc(N[C@H]3CC[C@@H](Oc4nc(N5CCOCC5)cc5ncccc45)CC3)ncc21 [Compound 101] | F (% remaining = 25-50%) |
| CS(=O)(=O)c1cnc2cc(N3CCOCC3)nc(O[C@H]3CC[C@@H](Nc4ncccn4)CC3)c2c1 [Compound 200b] | G (% remaining = 50-75%) |
| CN(C)C(=O)Cn1c(=O)n(C)c2nc(N[C@H]3CC[C@@H](Oc4nc(N5CCOCC5)cc5ncccc45)CC3)ncc21 [Compound 102] | G (% remaining = 50-75%) |
| c1cnc2cc(N3CCOCC3)nc(O[C@H]3CC[C@@H](Nc4ncc(OCCN5CCOCC5)cn4)CC3)c2c1 [Compound 68] | F (% remaining = 25-50%) |
| O=c1[nH]c2cnc(N[C@H]3CC[C@@H](Oc4nc(N5CCOCC5)cc5ncccc45)CC3)nc2n1C1CCOCC1 [Compound 95] | F (% remaining = 25-50%) |

====

- Tested on: FaDu cell line
- protocolSummary: Prodrug Activation in Hypoxic Stirred Tumour Cell Suspensions
- measurementSetup: 10 μM, 4 hours, 5% O2
measurementKind: Fraction of prodrug converted to active form, Oxic 5% O2

| molecule | measurement |
| --- | --- |
| COc1cccnc1N[C@H]1CC[C@@H](Oc2nc(N3CCOCC3)cc3ncc(N(Cc4cnc([N+](=O)[O-])n4C)S(C)(=O)=O)cc23)CC1 [LFA2009] | C (C is 0.02 to 0.05) |
| CN1CCN(c2cnc(N[C@H]3CC[C@@H](Oc4nc(N5CCOCC5)cc5ncc(OCc6cnc([N+](=O)[O-])n6C)cc45)CC3)nc2)CC1 [LFA2065] | C (C is 0.02 to 0.05) |
| CC(c1cnn(C)c1[N+](=O)[O-])N(c1cnc2cc(N3CCOCC3)nc(O[C@H]3CC[C@@H](Nc4ncc(OC5CCN(C)C5)cn4)CC3)c2c1)S(C)(=O)=O (some centres unmarked) [LFA2064] | C (C is 0.02 to 0.05) |
| CC(c1cnc([N+](=O)[O-])n1C)N(c1cnc2cc(N3CCOCC3)nc(O[C@H]3CC[C@@H](Nc4ncc(OCCN5CCN(C)CC5)cn4)CC3)c2c1)S(C)(=O)=O (some centres unmarked) [LFA2060] | D (D is 0 to 0.02) |
| CC(NS(=O)(=O)c1cnc2cc(N3CCOCC3)nc(O[C@H]3CC[C@@H](Nc4ncc(C(F)(F)F)cn4)CC3)c2c1)c1cnc([N+](=O)[O-])n1C (some centres unmarked) [LFA2092] | D (D is 0 to 0.02) |
